# measurement_target: furin, P09958;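 note: purified furin at 1:10 enzyme:substrate in 50 mM HEPES pH 7.5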
# Sequence (P09958 whole entry): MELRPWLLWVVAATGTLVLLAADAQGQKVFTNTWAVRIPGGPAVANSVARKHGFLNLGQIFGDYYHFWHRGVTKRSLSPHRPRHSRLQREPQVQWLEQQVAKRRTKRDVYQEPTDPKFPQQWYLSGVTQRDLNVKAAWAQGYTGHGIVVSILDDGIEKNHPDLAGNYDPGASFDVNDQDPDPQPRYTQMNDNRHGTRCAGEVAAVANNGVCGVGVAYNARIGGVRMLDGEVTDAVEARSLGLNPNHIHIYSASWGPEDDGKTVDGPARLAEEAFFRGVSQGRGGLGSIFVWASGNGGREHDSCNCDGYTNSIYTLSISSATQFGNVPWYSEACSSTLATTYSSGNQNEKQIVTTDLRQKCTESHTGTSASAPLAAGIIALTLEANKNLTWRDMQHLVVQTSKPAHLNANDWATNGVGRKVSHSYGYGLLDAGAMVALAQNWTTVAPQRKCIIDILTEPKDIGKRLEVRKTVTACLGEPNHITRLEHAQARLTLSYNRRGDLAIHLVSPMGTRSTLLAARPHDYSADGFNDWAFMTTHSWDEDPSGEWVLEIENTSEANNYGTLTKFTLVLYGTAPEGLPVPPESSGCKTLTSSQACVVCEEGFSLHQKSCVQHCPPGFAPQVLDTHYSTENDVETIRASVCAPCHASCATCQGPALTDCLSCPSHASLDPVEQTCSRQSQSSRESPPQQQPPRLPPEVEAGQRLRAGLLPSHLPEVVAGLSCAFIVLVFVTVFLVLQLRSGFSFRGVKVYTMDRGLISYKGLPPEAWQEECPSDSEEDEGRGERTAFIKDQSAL
# test_description: furin cleavage Z-score vs untreated control; higher = more cleavage, active = 3.5 or more, inactive = 1 or less, 8 variable residues between constant flanks
# experimental_context: 7.5 min
This is one part of the list. How many sequences the whole screen found active is unknown.
Labels: active, inactive

>>> print(df.to_string())
                  item_sequence  class_assignment
0    CAIRMYVGGVAGNASASA [HC475]          inactive
1    CARRRSRNLGAGNASASA [HC217]            active
2  CARRRRSLPGAGNASASA [FS-1788]            active
3  CARRRRSLRRAGNASASA [FS-2454]            active
